molecular target: T1, human MSLN-R2-his protein (human, UniProt Q13421 391-486); assay: ELISA, coated antigen; antibody 1 nM
T1 construct: also called human MSLN-R2 protein; hMSLN-R2-his; not shown: His tag
T1 sequence (Q13421 other isoform, or with tags, fused parts or gaps): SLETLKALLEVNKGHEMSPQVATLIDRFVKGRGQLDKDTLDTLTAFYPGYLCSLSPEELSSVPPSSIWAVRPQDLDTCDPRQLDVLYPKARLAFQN
Observable: OD450 (OD450)
# value in OD450; strip the unit string

Sample S009-F3.80.22 (antibody, human IgG1, kappa, V domains shown, Human-murine chimeric antibody, human IgG1/kappa constant regions) VH: QVQLQQSGAELVRPGASVTLSCKASGYTFTDYEIHWVKQTPVHGLEWIGAFDPEIGGSAYNQKFKDRATLTADKSSSTAYMELHSLTAEDSAVYYCTDYYGSSSGYFDVWGTGTTVTVSS VL: DVVMTQTPLSLPVSLGDQASISCRSSQSLEHNNGNTYLHWFLHKPGQSPKLLIYKVSNRFSGVPDRFSGSGSGTDFTLKISRVEAEDLGVYFCSQSTHVPFTFGSGTKLEIKR ; OD450 observed: 0.06
